All figures here come from the supplement of paper PMC10567573.

B1: SMTNL2 (parent)
chain: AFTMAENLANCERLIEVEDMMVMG

- Variants of: B1
- procedure_summary: protein stability index of a GFP-peptide fusion (GPS, HEK-293T) (PSI 1-6); higher = more stable;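 further: lentivirally expressed fusions sorted by FACS into six bins by GFP to DsRed ratio, PSI derived from sequencing read proportions per bin multiplied by bin number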
- run_conditions: c terminus: a fixed tail appended
This section presents variants with their documented protein stability index values.
// return just the number, without any unit appended

// known answers, use as guide
The variant E6F showed protein stability index equal to 2.45

Per the record, C11Q has protein stability index of 4.09

More entries:
Entry under test: M20K . Its protein stability index was 2.91

Entry M4I , protein stability index reported as 2.96

Entry A1E — recorded protein stability index = 2.1

Noted for C11F : its protein stability index reads 2.56

Entry M23L , protein stability index reported as 1.89

protein stability index measured on T3V = 1.79

So, V17S ? Its protein stability index was 3.25

Just so you know, measured protein stability index for C11E came out at 3.9
